Test system: FLO-1 EAC cells
Test: MTT proliferation assay, FLO-1 cells
Type: cell-based
Conditions: FLO-1, 72 h, read-out: Antiproliferative activity IC50, FLO-1
pIC50: −log10 of the molar value.
Here the recorded pIC50 is given for each entry.
readout: pIC50

> print(dat)
                                   compound  readout  observed.value
1  O=C(Nc1ccc([N+](=O)[O-])cc1Cl)c1cc(Cl)ccc1O [Niclosamide]    pIC50            5.98
2  O=C(Nc1cccc(S(F)(F)(F)(F)F)c1)c1cc(Cl)ccc1O [Compound 2c]    pIC50            5.86
3  CCc1ccc(NC(=O)c2cc(Cl)ccc2O)cc1 [Compound 2d]    pIC50            5.21
4  O=C(Nc1ccc(S(F)(F)(F)(F)F)cc1)c1cc(Cl)ccc1O [Compound 2a]    pIC50            5.79

----------
Tested on: M. mycetomatis MM55 strain
Experiment: In vitro susceptibility testing (MTS), MM55 strain
Type: cell-based, Madurella mycetomatis
Settings: Madurella mycetomatis, MM55STRAIN, read-out: Antifungal activity IC90
Method: The antifungal activity of the compounds was tested against a geographically and genetically diverse set of M. mycetomatis isolates. […] The only difference was that tetrazolium compound 3-(4,5-dimethylthiazol-2-yl)-5-(3-carboxymethoxyphenyl)-2-(4-sulfophenyl)-2H-tetrazolium salt (MTS) was used as a viability dye in endpoint reading instead of 2,3-bis-(2-methoxy-4-nitro-5-sulfophenyl)-2H-tetrazolium-5-carboxanilide salt (XTT).
readout: IC90 (µM)

> print(dat)
                                   molecule               tested.target  unit.label  observed.value
1           CCc1ccc(NC(=O)c2cc(Cl)ccc2O)cc1  M. mycetomatis MM55 strain          µM             8.4
2  O=C(Nc1ccc([N+](=O)[O-])cc1Cl)c1cc(Cl)ccc1O [Niclosamide]  M. mycetomatis MM55 strain          µM            23.8
3  O=C(Nc1ccc(S(F)(F)(F)(F)F)cc1)c1cc(Cl)ccc1O  M. mycetomatis MM55 strain          µM             1.9
4  O=C(Nc1cccc(S(F)(F)(F)(F)F)c1)c1cc(Cl)ccc1O  M. mycetomatis MM55 strain          µM               2
5     O=C(Nc1ccc(C(F)(F)F)cc1)c1cc(Cl)ccc1O  M. mycetomatis MM55 strain          µM             1.1
